Test system: CCRF-CEM
assay.name: NCI tumour cell line growth inhibition, 48 h
Active and inactive are the calls of the source. Rule as the data show it: active = GI50 up to about 1.1 µM and inactive = higher.
measurement.label: GI50

Prompt: Determine its reported GI50: `c1ccc([P+](c2ccccc2)(c2ccccc2)c2ccc(-c3ccc([P+](c4ccccc4)(c4ccccc4)c4ccccc4)cc3)cc2)cc1`
Response: 82.4 µM (inactive)

Prompt: Determine its reported GI50: `Nc1cc2ncnn2c(SCC(=O)N/N=C/C(Br)=C\c2ccccc2)n1`
Response: 5.77 µM (inactive)

Prompt: Determine its reported GI50: C[C@@H]1CC(=O)[C@@]2(C)[C@](O)(CCC3O[C@]32C)[C@@]12CC(c1ccoc1)OC2=O (stereo not given in full)
Response: 20.5 µM (inactive)

Prompt: Determine its reported GI50: `CN(C)c1nc2n(CCO)c(-c3ccccc3)c(-c3ccccc3)nc-2c(=O)n1`
Response: > 100 µM (inactive)

Prompt: Determine its reported GI50: `O=C(NCCOC(=O)OCCNC(=O)NC1CCCCC1)NC1CCCCC1`
Response: > 100 µM (inactive)

Prompt: Determine its reported GI50: N#CC12COC3(CCCCC3C1(C#N)C#N)OC2=N (stereo not given)
Response: 3.53 µM (inactive)

Prompt: Determine its reported GI50: `Fc1ccc(OCc2ccc3nc(-c4ccccc4)c(Cl)nc3c2)cc1`
Response: 25.7 µM (inactive)

Prompt: Determine its reported GI50: `O=c1cc(NNc2cccc(Cl)c2)[nH]c(=O)[nH]1`
Response: 21.6 µM (inactive)

Prompt: Determine its reported GI50: CC(C)=CC(=O)C1c2cccc(O)c2C(=O)c2c(O)cc(C)cc21 (stereo not given)
Response: 2.55 µM (inactive)

Prompt: Determine its reported GI50: COC(=O)C1C(O)C(C)C(O)C(C)(O)/C=C\C=C(C)C(=O)Nc2c(C)c(OC(C)=O)c3c(c2O)C(=O)C(C)=C2OCOC(=C23)C(C)=CC(C)(O)C(O)C(C)C1OC(C)=O (stereo not given)
Response: 34.7 µM (inactive)
